Data credit: patent US20100004431A1

Target: T1, CD25 (R&D systems cat. #223-2A/CF) (UniProt P01589 22-213, limits assumed)
T1 construct: Bought soluble protein
T1 sequence (looked up): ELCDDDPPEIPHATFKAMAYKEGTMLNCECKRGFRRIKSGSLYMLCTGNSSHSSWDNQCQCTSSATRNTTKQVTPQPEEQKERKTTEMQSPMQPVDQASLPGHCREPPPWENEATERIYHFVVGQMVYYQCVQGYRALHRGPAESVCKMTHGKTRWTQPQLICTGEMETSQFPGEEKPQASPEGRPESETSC
Assay: Biacore (SPR); antibody captured on Protein A, CD25 injected
Kd reference
Field: numeric (nM). Do not append units.

>>> readout_value("anti-CD25 H1L1 single variant VH I69M (antibody, IgG1, V domains shown, IgG1 format) VH: QVQLVQSGAEVKKPGASVKVSCKASGYTFTSYRMHWVRQAPGQGLEWMGYINPSTGYTEYNQKFQGRVTMTADKSISTAYMELSRLRSDDTAVYYCARGGGVFDYWGQGTLVTVSS VL: QIVLTQSPATLSLSPGERATLSCRASSSISYMHWFQQKPGQSPQLLIYTTSNLASGVPARFSGSGSGTDYTLTISSLQPEDFAVYYCHQRSTYPLTFGSGTKLEIK")
0.13
>>> readout_value("anti-CD25 H1.1L1 (antibody, V domains shown, Single variant in the anti-CD25 H1L1 background; also called VH A71R single variant) VH: QVQLVQSGAEVKKPGASVKVSCKASGYTFTSYRMHWVRQAPGQGLEWMGYINPSTGYTEYNQKFQGRVTITRDKSISTAYMELSRLRSDDTAVYYCARGGGVFDYWGQGTLVTVSS VL: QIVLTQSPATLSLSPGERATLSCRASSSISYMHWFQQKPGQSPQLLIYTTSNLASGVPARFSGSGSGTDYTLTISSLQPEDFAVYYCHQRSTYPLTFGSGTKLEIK")
0.16

What does the record list as Kd for anti-CD25 H1L1.6 (antibody, V domains shown, Single variant in the anti-CD25 H1L1 background; also called VL Q45R single variant) VH: QVQLVQSGAEVKKPGASVKVSCKASGYTFTSYRMHWVRQAPGQGLEWMGYINPSTGYTEYNQKFQGRVTITADKSISTAYMELSRLRSDDTAVYYCARGGGVFDYWGQGTLVTVSS VL: QIVLTQSPATLSLSPGERATLSCRASSSISYMHWFQQKPGQSPRLLIYTTSNLASGVPARFSGSGSGTDYTLTISSLQPEDFAVYYCHQRSTYPLTFGSGTKLEIK ?
0.32
